Molecular target: ROCK2 (Homo sapiens (Human), UniProt O75116)
Sequence (O75116 whole entry, species assumed): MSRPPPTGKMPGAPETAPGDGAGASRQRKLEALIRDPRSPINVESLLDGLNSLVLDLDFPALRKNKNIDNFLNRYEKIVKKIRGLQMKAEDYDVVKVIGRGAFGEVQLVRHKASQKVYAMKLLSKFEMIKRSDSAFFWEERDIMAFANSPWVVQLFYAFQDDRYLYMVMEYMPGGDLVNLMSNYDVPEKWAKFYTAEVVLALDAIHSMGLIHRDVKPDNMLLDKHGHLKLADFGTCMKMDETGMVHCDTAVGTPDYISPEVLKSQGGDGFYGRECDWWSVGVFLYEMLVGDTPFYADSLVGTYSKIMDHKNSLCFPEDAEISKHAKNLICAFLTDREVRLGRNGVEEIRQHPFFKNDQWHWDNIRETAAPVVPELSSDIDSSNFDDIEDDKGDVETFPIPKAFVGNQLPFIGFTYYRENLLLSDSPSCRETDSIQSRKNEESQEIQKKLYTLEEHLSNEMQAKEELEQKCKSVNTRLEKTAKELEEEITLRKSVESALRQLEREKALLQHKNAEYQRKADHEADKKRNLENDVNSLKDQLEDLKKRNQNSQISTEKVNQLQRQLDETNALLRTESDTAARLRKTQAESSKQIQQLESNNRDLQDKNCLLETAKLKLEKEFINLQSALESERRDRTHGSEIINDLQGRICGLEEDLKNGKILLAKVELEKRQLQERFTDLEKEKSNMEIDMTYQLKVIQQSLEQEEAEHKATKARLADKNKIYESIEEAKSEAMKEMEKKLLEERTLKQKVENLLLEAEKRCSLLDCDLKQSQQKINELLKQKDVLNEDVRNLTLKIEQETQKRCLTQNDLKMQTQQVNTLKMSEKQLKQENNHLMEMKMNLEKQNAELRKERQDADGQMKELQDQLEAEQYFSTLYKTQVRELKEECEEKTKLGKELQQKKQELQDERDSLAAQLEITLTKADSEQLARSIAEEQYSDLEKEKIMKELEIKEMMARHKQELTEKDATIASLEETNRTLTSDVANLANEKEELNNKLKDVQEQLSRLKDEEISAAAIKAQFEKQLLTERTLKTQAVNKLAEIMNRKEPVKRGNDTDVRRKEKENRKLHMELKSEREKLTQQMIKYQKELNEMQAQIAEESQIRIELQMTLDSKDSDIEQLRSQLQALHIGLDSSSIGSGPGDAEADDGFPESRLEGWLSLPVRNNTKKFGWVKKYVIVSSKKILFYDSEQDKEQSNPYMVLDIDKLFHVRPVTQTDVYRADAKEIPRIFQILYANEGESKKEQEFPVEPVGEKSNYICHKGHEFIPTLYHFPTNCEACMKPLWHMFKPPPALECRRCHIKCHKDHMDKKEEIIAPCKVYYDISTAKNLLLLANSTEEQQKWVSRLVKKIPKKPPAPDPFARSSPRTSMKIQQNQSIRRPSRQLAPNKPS
pIC50: −log10 of the molar value.
condition met means recorded pIC50 is 7 or above; condition not met means it is below 7.

INPUT: Would you say "COc1ccc2c(c1)nc(NC(=O)Cc1ccc(Oc3ncccc3C(N)=O)c(F)c1)n2CC1CC1" shows pIC50 at minimum 7?
OUTPUT: condition met

INPUT: Thanks! And "NC(=O)c1cccnc1Oc1ccc(CC(=O)Nc2nc3c(C(F)(F)F)cccn3n2)cc1F" ?
OUTPUT: condition met

INPUT: Thanks! And "NC(=O)c1cccnc1Oc1ccc(CC(=O)Nc2nc3c(OC(F)F)cccn3n2)cc1F" ?
OUTPUT: condition met

INPUT: Thanks! And "COc1ccc2c(c1)nc(NC(=O)Cc1ccc(Oc3ncccc3C(N)=O)c(F)c1)n2CC(F)F" ?
OUTPUT: condition met

INPUT: Thanks! And "Cn1ccc(-c2ccc3sc(NC(=O)Cc4ccc(Oc5ncccc5C(N)=O)c(F)c4)nc3c2)cc1=O" ?
OUTPUT: condition met

INPUT: Thanks! And "Cn1cc(-c2ccc3nc(NC(=O)Cc4ccc(Oc5ncccc5C(N)=O)c(F)c4)cn3c2)cn1" ?
OUTPUT: condition met

INPUT: Thanks! And "COc1ccn2nc(NC(=O)Cc3ccc(Oc4ncccc4C(N)=O)c(F)c3)nc2c1" ?
OUTPUT: condition met

INPUT: Thanks! And "NC(=O)c1ccc2nc(NC(=O)Cc3ccc(Oc4ncccc4C(N)=O)cc3)sc2c1" ?
OUTPUT: condition not met

Others:
INPUT: Would you say "Cc1cc(-c2ccc3sc(NC(=O)Cc4ccc(Oc5ncccc5C(N)=O)c(F)c4)nc3c2)n(C)n1" shows pIC50 at minimum 7?
OUTPUT: condition met

INPUT: Thanks! And "Cc1ccc2[nH]c(NC(=O)Cc3ccc(Oc4ncccc4C(N)=O)cc3)nc2c1" ?
OUTPUT: condition not met

INPUT: Thanks! And "Cn1nccc1-c1ccc2nc(NC(=O)Cc3ccc(Oc4ncccc4C(N)=O)c(F)c3)nn2c1" ?
OUTPUT: condition met

INPUT: Thanks! And "NC(=O)c1cccnc1Oc1ccc(CC(=O)Nc2nc3ccc(OCc4ccccc4)cc3n2CC2CC2)cc1F" ?
OUTPUT: condition met

INPUT: Thanks! And "NC(=O)c1cccnc1Oc1ccc(CC(=O)Nc2nc3ccc(OC(F)F)nc3s2)cc1Cl" ?
OUTPUT: condition met
